Cited source for all entries: ChEMBL document CHEMBL4689842

- System: HEK-293T
- assay_comment: Multiplex assay against HEK293T
- Assay type: toxicity, cell-based
- experimental_conditions: human, 24 h, 1 µM, compound concentration 1 uM, replicate 2
value_kind: Population Membrane Permeable-Phenotype (%)
Quick reminder: number only, in %, skip the unit.

Some molecules with known Population Membrane Permeable-Phenotype (%) results, for comparison:
Cl.N#Cc1ccc2[nH]cc(CCCCN3CCN(c4ccc5oc(C(N)=O)cc5c4)CC3)c2c1 [VILAZODONE HYDROCHLORIDE]	2
CCN(CC)CCCCNc1ncc2cc(-c3cc(OC)cc(OC)c3)c(NC(=O)NC(C)(C)C)nc2n1	0
CN1CCC[C@@H]1CCO[C@](C)(c1ccccc1)c1ccc(Cl)cc1.O=C(O)/C=C/C(=O)O [CLEMASTINE FUMARATE]	4
CN1CCN(c2ccc(OC(F)(F)F)c(Nc3ncc4c(n3)-c3c(c(C(N)=O)nn3CCO)CC4)c2)CC1	0
Cn1cc(-c2[nH]c3cc(NC(=O)[C@H](N)C4CCCCC4)cc4c3c2C=NNC4=O)cn1	14
C[C@@H](NCCCc1cccc(C(F)(F)F)c1)c1cccc2ccccc12.Cl [CINACALCET HYDROCHLORIDE]	6
CN(C)C(=O)N[C@H]1CC[C@H](CCN2CCN(c3cccc(Cl)c3Cl)CC2)CC1.Cl [CARIPRAZINE HYDROCHLORIDE]	4

# context switch: different molecule, same Population Membrane Permeable-Phenotype (%)
Incoming: Answer briefly: Population Membrane Permeable-Phenotype (%) recorded on HEK-293T for NC(=O)Nc1cc(-c2cccc(F)c2)sc1C(=O)N[C@H]1CCCNC1
Outgoing: 8

###

Known Population Normal (%) of a selection of molecules
- Test system: Fibroblast
- assay_comment: Multiplex assay against human fibroblast
- Format: toxicity, cell-based
- experimental_conditions: 24 h, 1 µM, compound concentration 1 uM, replicate 1
Write it as a number; the unit % goes unstated.

Consider the reported Population Normal (%) for these molecules:
CC[C@H](C)C(=O)O[C@H]1C[C@@H](C)C=C2C=C[C@H](C)[C@H](CC[C@@H]3C[C@@H](O)CC(=O)O3)[C@H]21	88
Cc1csc2c(N[C@@H](C)CN3CCN(S(=O)(=O)c4ccc(Cl)c(Cl)c4)CC3)ncnc12	91

Incoming: Identify the reported Population Normal (%) for the following entry. CN(C)CC#Cc1ccc(OCCCc2sc(N3CCc4cccc(C(=O)Nc5nc6ccccc6s5)c4C3)nc2C(=O)O)c(F)c1
Outgoing: 88

Incoming: Supply measured Population Normal (%) of CCN(CC)CCCCNc1ncc2cc(-c3cc(OC)cc(OC)c3)c(NC(=O)NC(C)(C)C)nc2n1 in your reply.
Outgoing: 25

Incoming: Consider the molecule CN(C)C(=O)N[C@H]1CC[C@H](CCN2CCN(c3cccc(Cl)c3Cl)CC2)CC1.Cl [CARIPRAZINE HYDROCHLORIDE] . State its measured Population Normal (%).
Outgoing: 89

Incoming: Tell us which Population Normal (%) value is on record for CNc1nc(NCc2ccc(NS(C)(=O)=O)cc2Cl)cc(-c2ccccn2)n1
Outgoing: 88

###

- System: HEK-293T
- assay_comment: Multiplex assay against HEK293T
- Type: toxicity, cell-based
- experimental_conditions: human, 24 h, 10 µM, compound concentration 10 uM, replicate 1
value_kind: Population Mitotic Cells (%)
Give your result in % as a bare value.

O=C1NCN(c2ccccc2)C12CCN(CCCOc1ccc(F)cc1)CC2 [SPIRAMIDE]	30
C=CC(=O)Nc1cccc(C(=O)Nc2ccc(Nc3cc(-c4[nH]c(SC)nc4C)ccn3)cc2)c1	52

Incoming: For COc1cc2nccc(Oc3ccc(NC(=O)Nc4cc(C)on4)c(Cl)c3)c2cc1OC.O , write its Population Mitotic Cells (%).
Outgoing: 10

Incoming: Output Population Mitotic Cells (%) of Cc1nc(-c2ccc(-c3ccc(C(=O)N4CCc5cc6c(cc54)C4(CCN(C)CC4)CO6)cc3)c(C)c2)no1 [SB-224289]
Outgoing: 7

Incoming: Give Population Mitotic Cells (%) for the following compound: CN(C)CC#Cc1ccc(OCCCc2sc(N3CCc4cccc(C(=O)Nc5nc6ccccc6s5)c4C3)nc2C(=O)O)c(F)c1 [A-1155463]
Outgoing: 57

Incoming: Provide one value: measured Population Mitotic Cells (%) of C[C@@H](NCCCc1cccc(C(F)(F)F)c1)c1cccc2ccccc12.Cl [CINACALCET HYDROCHLORIDE]
Outgoing: 12

Incoming: Give a short answer stating reported Population Mitotic Cells (%) for COc1ncc(-c2ccc3nccc(-c4ccnnc4)c3c2)cc1NS(=O)(=O)c1ccc(F)cc1F [OMIPALISIB] .
Outgoing: 46

###

- Tested on: U2OS
- assay_comment: Multiplex assay against U2OS
- Type: toxicity, cell-based
- experimental_conditions: human, 24 h, 1 µM, compound concentration 1 uM, replicate 2
In plain terms, low Population Mitochondria Different-Phenotype (%), meaning strictly below 20%, gives true (1), and everything else gives false (0).

Some solved cases for reference:
Cc1csc2c(N[C@@H](C)CN3CCN(S(=O)(=O)c4ccc(Cl)c(Cl)c4)CC3)ncnc12	false (0)
Cl.N#Cc1ccc2[nH]cc(CCCCN3CCN(c4ccc5oc(C(N)=O)cc5c4)CC3)c2c1 [VILAZODONE HYDROCHLORIDE]	true (1)
CN1CCN(c2ccc(OC(F)(F)F)c(Nc3ncc4c(n3)-c3c(c(C(N)=O)nn3CCO)CC4)c2)CC1 [ONVANSERTIB]	false (0)
C[C@@]1(C(=O)Nc2ccc(F)nc2)CCCN1c1nc(Nc2cc(C3CC3)n[nH]2)c2cccn2n1 [BMS-754807]	false (0)

Would you kindly look at the next entry?
Incoming: Threshold test, Population Mitochondria Different-Phenotype (%) < 20%: CN1CCC[C@@H]1CCO[C@](C)(c1ccccc1)c1ccc(Cl)cc1.O=C(O)/C=C/C(=O)O [CLEMASTINE FUMARATE]
Outgoing: true (1)

###

# Growth Rate annotations
- Test system: U2OS
- assay_comment: Incucyte cell viability with U2OS; note: filed as whole numbers so only -1 and 0 and 1 occur
- Assay type: toxicity, cell-based
- experimental_conditions: human, 12 h, 10 µM, compound concentration 10 uM, replicate number 2, timepoint 12 hours
Respond numerically, and do not add a unit to the figure.

Solved entries (count: 3):
Cc1[nH]c(/C=C2\C(=O)Nc3ccc(S(=O)(=O)N(C)c4cccc(Cl)c4)cc32)c(C)c1C(=O)N1CCN(C)CC1	1
CNC(=NCCSCc1csc(N=C(N)N)n1)NC#N	0
C[C@@H](NCCCc1cccc(C(F)(F)F)c1)c1cccc2ccccc12.Cl [CINACALCET HYDROCHLORIDE]	0

Incoming: Fill in reported Growth Rate for this entry: CN(C)[C@@H]1CCN(c2cc(-c3ccccc3)nc3ccnn23)C1 [(R)-ZINC-3573]
Outgoing: 0

###

- System: U2OS
- assay_comment: Multiplex assay against U2OS
- Assay type: toxicity, cell-based
- experimental_conditions: human, 24 h, 10 µM, compound concentration 10 uM, replicate 1
value_kind: Population Pyknosed Nuclei (%)
Report the value in % with no unit label.

For orientation, consider the following solved cases.
Cc1csc2c(N[C@@H](C)CN3CCN(S(=O)(=O)c4ccc(Cl)c(Cl)c4)CC3)ncnc12	36
CN1CCN(CCOc2cc(OC3CCOCC3)c3c(Nc4c(Cl)ccc5c4OCO5)ncnc3c2)CC1 [SARACATINIB]	20
COc1ncc(-c2ccc3nccc(-c4ccnnc4)c3c2)cc1NS(=O)(=O)c1ccc(F)cc1F [OMIPALISIB]	38
Cc1c(-c2ccc(O)cc2)n(Cc2ccc(OCCN3CCCCCC3)cc2)c2ccc(O)cc12 [BAZEDOXIFENE]	40
CN(C)CC#Cc1ccc(OCCCc2sc(N3CCc4cccc(C(=O)Nc5nc6ccccc6s5)c4C3)nc2C(=O)O)c(F)c1 [A-1155463]	27

Next:
Incoming: Report measured Population Pyknosed Nuclei (%); entry is CNc1nc(NCc2ccc(NS(C)(=O)=O)cc2Cl)cc(-c2ccccn2)n1
Outgoing: 14

###

# Lookup of reported Population Tubulin-Different-Phenotype (%) keyed by entry
- Test system: Fibroblast
- assay_comment: Multiplex assay against human fibroblast
- Type: toxicity, cell-based
- experimental_conditions: 48 h, 10 µM, compound concentration 10 uM, replicate 1
Use % as the unit, but write only the number.

Examples with their reported Population Tubulin-Different-Phenotype (%) follow.
CNCc1ccccc1-c1csc([C@H](C)Nc2nc(C)nc3cc(OC)c(OC)cc23)c1	65
C[C@@]1(C(=O)Nc2ccc(F)nc2)CCCN1c1nc(Nc2cc(C3CC3)n[nH]2)c2cccn2n1	85
Cc1nc(-c2ccc(-c3ccc(C(=O)N4CCc5cc6c(cc54)C4(CCN(C)CC4)CO6)cc3)c(C)c2)no1	85
Cc1cc(C)cc(-c2cnc3cc(Cl)c(-c4cccc(O)c4)cc3c2OCCCN)c1	81
Cc1[nH]c(/C=C2\C(=O)Nc3ccc(S(=O)(=O)N(C)c4cccc(Cl)c4)cc32)c(C)c1C(=O)N1CCN(C)CC1	100
CN1CCCC(n2nc(Cc3ccc(Cl)cc3)c3ccccc3c2=O)CC1.Cl (configuration not stated) [AZELASTINE HYDROCHLORIDE]	84

Incoming: Determine its reported Population Tubulin-Different-Phenotype (%): COc1cc(-n2cnc3cc(-c4ccc(Cl)cc4)sc3c2=O)ccc1OCCN1CCCC1
Outgoing: 85

Incoming: Note Population Tubulin-Different-Phenotype (%) for the molecule shown: c1cn2cc(-c3ccc4cn[nH]c4c3)nc(Nc3ccc(N4CCOCC4)cc3)c2n1
Outgoing: 17

Incoming: Tell us which Population Tubulin-Different-Phenotype (%) value is on record for CC(C)(O)CNc1ncc(-c2ccnc(Nc3ccnc(Cl)c3)n2)c(CC2CC2)n1
Outgoing: 93
